Listing of recorded log10 of Ki by entry.
- measuredTarget: Dimer of Gag-Pol polyprotein [489-587] (Human immunodeficiency virus 1, UniProt P12497)
- Construct: 489-587
- procedureDetails: Protease Inhibition Assay
- settings: pH 5.5; 37 °C
reportedMetric: log10 of Ki (log10 of the value in nM)

{"smilesStructure": "COc1ccc(C[C@@H]2[C@H](O)[C@@H](O)[C@@H](Cc3ccc(OC)cc3)N(Cc3ccc(CO)cc3)C(=O)N2Cc2ccc(CO)cc2)cc1", "measured": -0.62}
{"smilesStructure": "COc1cccc(C[C@@H]2[C@H](O)[C@@H](O)[C@@H](Cc3cccc(OC)c3)N(Cc3ccc(CO)cc3)C(=O)N2Cc2ccc(CO)cc2)c1", "measured": -0.96}
{"smilesStructure": "O=C1N(Cc2ccc(CO)cc2)[C@H](CC2CCCCC2)[C@H](O)[C@@H](O)[C@@H](CC2CCCCC2)N1Cc1ccc(CO)cc1", "measured": 1.51}
{"smilesStructure": "O=C1N(CC2CC2)[C@H](Cc2cccs2)[C@H](O)[C@@H](O)[C@@H](Cc2cccs2)N1CC1CC1", "measured": 0.96}
{"smilesStructure": "CSCC[C@@H]1[C@H](O)[C@@H](O)[C@@H](CCSC)N(Cc2ccc(CO)cc2)C(=O)N1Cc1ccc(CO)cc1", "measured": 3.59}
{"smilesStructure": "O=C1N(Cc2ccc(CO)cc2)[C@H](Cc2ccc(F)c(F)c2)[C@H](O)[C@@H](O)[C@@H](Cc2ccc(F)c(F)c2)N1Cc1ccc(CO)cc1", "measured": -0.33}
{"smilesStructure": "CC(C)C[C@@H]1[C@H](O)[C@@H](O)[C@@H](CC(C)C)N(Cc2ccc(CO)cc2)C(=O)N1Cc1ccc(CO)cc1", "measured": 1.58}

* * *

- measuredTarget: Dimer of Gag-Pol polyprotein [489-587] (Human immunodeficiency virus 1, UniProt P12497)
- Construct: 489-587
- procedureDetails: Protease Inhibition Assay
- settings: pH 5.5; 37 °C
reportedMetric: Ki (nM)

{"smilesStructure": "O=C(Nc1nc2ccccc2[nH]1)c1cccc(CN2C(=O)N(Cc3cccc(C(=O)Nc4nc5ccccc5[nH]4)c3)[C@H](Cc3ccccc3)[C@H](O)[C@@H](O)[C@H]2Cc2ccccc2)c1", "measuredTarget": "Dimer of Gag-Pol polyprotein [489-587] (Human immunodeficiency virus 1, UniProt P12497)", "measured": 0.024}
{"smilesStructure": "O=C1N(Cc2ccc(CO)cc2)[C@H](Cc2ccc(F)cc2)[C@H](O)[C@@H](O)[C@@H](Cc2ccc(F)cc2)N1Cc1ccc(CO)cc1", "measuredTarget": "Dimer of Gag-Pol polyprotein [489-587] (Human immunodeficiency virus 1, UniProt P12497)", "measured": 0.44}
{"smilesStructure": "O=C1N(Cc2ccc(CO)cc2)[C@H](Cc2ccncc2)[C@H](O)[C@@H](O)[C@@H](Cc2ccncc2)N1Cc1ccc(CO)cc1", "measuredTarget": "Dimer of Gag-Pol polyprotein [489-587] (Human immunodeficiency virus 1, UniProt P12497)", "measured": 4.8}
